For each of the compounds below, state its Drug uptake.
- Test system: Lung
- experimentalProtocol: Biodistribution in lung of mouse B16F0 cells implanted C57BL/6J mouse assessed per gram of tissue at 0.4 to 5.5 MBq, iv after 3 hrs by gamma counter
- Type: ADME, organism-based
- testParameters: in vivo
// return numeric value only (unit: %, not printed)

Q: Look up Drug uptake with Lung for this compound: CCN(CC)CCNC(=O)c1ccc([18F])nc1
Ans: 0.25

Q: Try CCN(CC)CCNC(=O)c1ccnc([18F])c1 next.
Ans: 0.37

Q: Try CCCCN(C)CCCCNC(=O)c1ccc([18F])nc1 next.
Ans: 3.1

Q: Try CCN(CC)CCNC(=O)c1cccnc1[18F] next.
Ans: 0.35

----------
- System: Intestine
- experimentalProtocol: Biodistribution in intestine of mouse B16F0 cells implanted C57BL/6J mouse assessed per gram of tissue at 0.4 to 5.5 MBq, iv after 3 hrs by gamma counter
- Type: ADME, organism-based
- testParameters: in vivo
endpoint: Drug uptake (%)
// return numeric value only (unit: %, not printed)

Q: Param item = CCN(CC)CCNC(=O)c1ccnc([18F])c1 ; retrieve measured Drug uptake.
Ans: 0.72

Q: Try CCN(CC)CCNC(=O)c1ccc([18F])nc1 next.
Ans: 0.54

Q: Try CCN(CC)CCNC(=O)c1cccnc1[18F] next.
Ans: 7.1

Q: Try CCCCN(C)CCCCNC(=O)c1ccc([18F])nc1 next.
Ans: 4.2

----------
- Test system: Intestine
- experimentalProtocol: Biodistribution in intestine of mouse B16F0 cells implanted C57BL/6J mouse assessed per gram of tissue at 0.4 to 5.5 MBq, iv after 0.25 hrs by gamma counter
- Format: ADME, organism-based
- testParameters: in vivo
endpoint: Drug uptake
Field note: include the unit after the figure.

Q: Look up Drug uptake with Intestine for this molecule: CCN(CC)CCNC(=O)c1ccnc([18F])c1
Ans: 7%

Q: Try CCN(CC)CCNC(=O)c1cccnc1[18F] next.
Ans: 7.8%

Q: Try CCN(CC)CCNC(=O)c1ccc([18F])nc1 next.
Ans: 5.4%

Q: Try CCCCN(C)CCCCNC(=O)c1ccc([18F])nc1 next.
Ans: 8.2%

----------
- Tested on: Intestine
- experimentalProtocol: Biodistribution in intestine of mouse B16F0 cells implanted C57BL/6J mouse assessed per gram of tissue at 0.4 to 5.5 MBq, iv after 1 hr by gamma counter
- Type: ADME, organism-based
- testParameters: in vivo
endpoint: Drug uptake (%)
// return numeric value only (unit: %, not printed)

Q: Param item = CCN(CC)CCNC(=O)c1ccc([18F])nc1 ; retrieve measured Drug uptake.
Ans: 2.1

Q: Try CCN(CC)CCNC(=O)c1cccnc1[18F] next.
Ans: 7.1

Q: Try CCCCN(C)CCCCNC(=O)c1ccc([18F])nc1 next.
Ans: 5.8

Q: Try CCN(CC)CCNC(=O)c1ccnc([18F])c1 next.
Ans: 2.9

----------
- Test system: Bone
- experimentalProtocol: Biodistribution in bone of mouse B16F0 cells implanted C57BL/6J mouse assessed per gram of tissue at 0.4 to 5.5 MBq, iv after 3 hrs by gamma counter
- Format: ADME, organism-based, Bone element
- testParameters: in vivo
endpoint: Drug uptake (%)
// return numeric value only (unit: %, not printed)

Q: Param item = CCCCN(C)CCCCNC(=O)c1ccc([18F])nc1 ; retrieve measured Drug uptake.
Ans: 1.4

Q: Try CCN(CC)CCNC(=O)c1ccc([18F])nc1 next.
Ans: 0.62

Q: Try CCN(CC)CCNC(=O)c1ccnc([18F])c1 next.
Ans: 0.77

Q: Try CCN(CC)CCNC(=O)c1cccnc1[18F] next.
Ans: 4.6

----------
For each of the compounds below, state its Drug uptake.
- System: Bone
- experimentalProtocol: Biodistribution in bone of mouse B16F0 cells implanted C57BL/6J mouse assessed per gram of tissue at 0.4 to 5.5 MBq, iv after 0.25 hrs by gamma counter
- Format: ADME, organism-based, Bone element
- testParameters: in vivo
// return numeric value only (unit: %, not printed)

Q: Param item = CCN(CC)CCNC(=O)c1cccnc1[18F] ; retrieve measured Drug uptake.
Ans: 4.8

Q: Try CCN(CC)CCNC(=O)c1ccnc([18F])c1 next.
Ans: 4

Q: Try CCN(CC)CCNC(=O)c1ccc([18F])nc1 next.
Ans: 3.5

Q: Try CCCCN(C)CCCCNC(=O)c1ccc([18F])nc1 next.
Ans: 3.89

----------
For each of the compounds below, state its Drug uptake.
- experimentalProtocol: Biodistribution in tumor of mouse B16F0 cells implanted C57BL/6J mouse assessed per gram of tissue at 0.4 to 5.5 MBq, iv after 1 hr by gamma counter
- Type: ADME, organism-based, Neoplasm
- testParameters: in vivo
// return numeric value only (unit: %, not printed)

Q: Param item = CCN(CC)CCNC(=O)c1ccnc([18F])c1 ; retrieve measured Drug uptake.
Ans: 12.2

Q: Try CCN(CC)CCNC(=O)c1ccc([18F])nc1 next.
Ans: 8.4

Q: Try CCCCN(C)CCCCNC(=O)c1ccc([18F])nc1 next.
Ans: 4.8

Q: Try CCN(CC)CCNC(=O)c1cccnc1[18F] next.
Ans: 14.6

----------
- experimentalProtocol: Biodistribution in tumor of mouse B16F0 cells implanted C57BL/6J mouse assessed per gram of tissue at 0.4 to 5.5 MBq, iv after 6 hrs by gamma counter
- Format: ADME, organism-based, Neoplasm
- testParameters: in vivo
endpoint: Drug uptake

Q: Param item = CCCCN(C)CCCCNC(=O)c1ccc([18F])nc1 ; retrieve measured Drug uptake.
Ans: 5.3%

Q: Try CCN(CC)CCNC(=O)c1ccnc([18F])c1 next.
Ans: 7.2%

Q: Try CCN(CC)CCNC(=O)c1cccnc1[18F] next.
Ans: 4.8%

Q: Try CCN(CC)CCNC(=O)c1ccc([18F])nc1 next.
Ans: 7.7%

----------
- experimentalProtocol: Biodistribution in tumor of mouse B16F0 cells implanted C57BL/6J mouse assessed per gram of tissue at 0.4 to 5.5 MBq, iv after 0.25 hrs by gamma counter
- Type: ADME, organism-based, Neoplasm
- testParameters: in vivo
endpoint: Drug uptake
Field note: include the unit after the figure.

Q: Param item = CCN(CC)CCNC(=O)c1cccnc1[18F] ; retrieve measured Drug uptake.
Ans: 10.6%

Q: Try CCN(CC)CCNC(=O)c1ccnc([18F])c1 next.
Ans: 7%

Q: Try CCCCN(C)CCCCNC(=O)c1ccc([18F])nc1 next.
Ans: 4%

Q: Try CCN(CC)CCNC(=O)c1ccc([18F])nc1 next.
Ans: 7%

----------
- Tested on: Spleen
- experimentalProtocol: Biodistribution in spleen of mouse B16F0 cells implanted C57BL/6J mouse assessed per gram of tissue at 0.4 to 5.5 MBq, iv after 3 hrs by gamma counter
- Assay type: ADME, organism-based
- testParameters: in vivo
For each of the compounds below, state its Drug uptake.
// return numeric value only (unit: %, not printed)

Q: Look up Drug uptake with Spleen for this compound: CCN(CC)CCNC(=O)c1cccnc1[18F]
Ans: 2.5

Q: Try CCCCN(C)CCCCNC(=O)c1ccc([18F])nc1 next.
Ans: 5.3

Q: Try CCN(CC)CCNC(=O)c1ccc([18F])nc1 next.
Ans: 0.89

Q: Try CCN(CC)CCNC(=O)c1ccnc([18F])c1 next.
Ans: 2.3

----------
- Test system: Stomach
- experimentalProtocol: Biodistribution in stomach of mouse B16F0 cells implanted C57BL/6J mouse assessed per gram of tissue at 0.4 to 5.5 MBq, iv after 1 hr by gamma counter
- Type: ADME, organism-based
- testParameters: in vivo
endpoint: Drug uptake
Field note: include the unit after the figure.

Q: Param item = CCN(CC)CCNC(=O)c1cccnc1[18F] ; retrieve measured Drug uptake.
Ans: 6.8%

Q: Try CCN(CC)CCNC(=O)c1ccnc([18F])c1 next.
Ans: 5.3%

Q: Try CCN(CC)CCNC(=O)c1ccc([18F])nc1 next.
Ans: 3.4%

Q: Try CCCCN(C)CCCCNC(=O)c1ccc([18F])nc1 next.
Ans: 3.3%

----------
For each of the compounds below, state its Drug uptake.
- Test system: Thyroid gland
- experimentalProtocol: Biodistribution in thyroid of mouse B16F0 cells implanted C57BL/6J mouse assessed per gram of tissue at 0.4 to 5.5 MBq, iv after 1 hr by gamma counter
- Type: ADME, organism-based
- testParameters: in vivo

Q: Param item = CCN(CC)CCNC(=O)c1ccc([18F])nc1 ; retrieve measured Drug uptake.
Ans: 3.3%

Q: Try CCCCN(C)CCCCNC(=O)c1ccc([18F])nc1 next.
Ans: 5.4%

Q: Try CCN(CC)CCNC(=O)c1ccnc([18F])c1 next.
Ans: 2.2%

Q: Try CCN(CC)CCNC(=O)c1cccnc1[18F] next.
Ans: 2.2%
